System: EPHA6
reported.conditions: concentration: 1 μM,replicates: in singlicate; n = 1;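 further: KINOMEscan kinase panel screen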
recorded.metric: %Inh
Your reply should be a number followed by the unit it is expressed in.

1. CCn1c(-c2nonc2N)nc2cncc(CNC3CCNCC3)c21.Cl :: 3%
2. Cl.Nc1n[nH]c2cc(-c3ccccn3)ccc12 :: 0%
3. NC(=O)c1ccc(-c2cc3ncnc(SCC(=O)O)c3s2)cc1 :: 21%
4. Cn1cc(-c2cccc3c(N)c(C(N)=O)nnc23)cn1 :: 17%

I'd like to know its %Inh. The compound in question is Cl.Cl.NC[C@H](CC1CCCCC1)NC(=O)c1ccc(-c2ccnc3[nH]ccc23)s1
27%

Subsequent entry: CS(=O)c1ccc(-c2coc3ccc(-c4n[nH]c(=O)o4)cc23)cc1 (stereo not shown)
0%

Moving on to Cc1cccc2c(-c3ccncc3)c(-c3ccc(F)cc3)nn12.Cl
6%

----------
System: S6K1
reported.conditions: concentration: 1 μM,replicates: in singlicate; n = 1
// label = true (1) if %Inh is not less than 10%, otherwise false (0)

Solved entries (count: 4):
1. O=C1NCCc2[nH]c(-c3ccncc3)cc21 :: true (1)
2. Cc1cccc(-c2nc(Nc3ccncc3)c3sccc3n2)n1 :: true (1)
3. O=C(Nc1n[nH]c2cc(-c3ccco3)ccc12)C1CC1 :: false (0)
4. CC(=O)Nc1nc2cnc(Nc3cc(NC(=O)c4cccc(CC(C)(C)C#N)c4)ccc3C)nc2s1 :: false (0)

Attention now shifts to the item below.
Record COc1cc2c(Nc3ccc(NC(=O)c4ccccc4)cc3)ncnc2cc1OCCCN1CCOCC1 ; criterion: %Inh no lower than 10%. Met?
true (1)

----------
%Inh reference
Tested on: MTOR
reported.conditions: concentration: 1 μM,replicates: in singlicate; n = 1
Note: unit % is implicit; provide only the numeric part.

1. c1ccc(Oc2ccc(Nc3ccnc4ccc(-c5ccccn5)cc34)cc2)cc1 :: 15
2. FC(F)(F)c1cc(Br)cc(Nc2nccc(-c3cnn4ncccc34)n2)c1 :: 0
3. Cc1nnc(-c2ccc3occ(-c4ccc(S(C)=O)cc4)c3n2)o1 (stereo not drawn) :: 0

Look up %Inh for this compound: COC(=O)Nc1nc2cc(Oc3ccc(NC(=O)Nc4cc(C(F)(F)F)ccc4Cl)cc3)ccc2[nH]1.Cl
19

Field entry: CC(=O)Nc1ccc(-c2cc3ncnc(SCC(=O)O)c3s2)cc1
3

Another compound to look at: OCCn1cc(-c2cnc3nnn(Cc4ccc5ncccc5c4)c3n2)cn1
52

Consider next the compound C[C@@H]1CNc2c(sc3ccc4nc(-c5ccncc5)ccc4c23)C(=O)N1 in the same way.
50

Proceed to COc1cc(Nc2nccc(N3CCC(NC(=O)c4cccc(C#N)c4)C3)n2)cc(OC)c1OC (stereo not drawn)
0

----------
The entries below are paired with their reported %Inh.
System: ACVR1B
reported.conditions: concentration: 1 μM,replicates: in singlicate; n = 1
Dear colleague, please return just the value in %, with no unit written.

Worked set:
1. O=C(Nc1ccccc1)c1cccc(Oc2ccc3nccn3n2)c1 :: 5
2. COc1cccc(C2=C(Nc3cccc(Cl)c3)C(=O)NC2=O)c1 :: 0
3. Cn1ccc2ncnc(Oc3ccc(NC(=O)Nc4ccnc(C(F)(F)F)c4)c(Cl)c3)c21 :: 0
4. CS(=O)(=O)Nc1ccc(-c2ccnc3[nH]ccc23)cc1 :: 0

Could you now look at the following compound, please?
Give its %Inh value. Item: Cc1ccc(C(=O)Nc2ccc(Oc3ccc4nc(NC(=O)C5CC5)cn4c3)c(F)c2)c(=O)n1-c1ccccc1
0

----------
System: RPS6KA4(Kin.Dom.1-N-terminal)
reported.conditions: concentration: 1 μM,replicates: in singlicate; n = 1
Simple rule here: %Inh less than 10% is Y, otherwise N.

1. CSc1nccc(-c2c(-c3ccc(F)cc3)ncn2CCCN2CCOCC2)n1.Cl :: N

Just wondering, is %Inh of CCn1c(-c2nonc2N)nc2cncc(Br)c21 below 10%?
Y

Try this compound too: O=C(NOCC1CC1)c1cc(Br)c(F)c(F)c1Nc1ccc(I)cc1Cl
Y

Try CC(C(=O)NC1CCN(c2ccnc(Nc3ccc(F)cc3)n2)C1)c1ccc(Cl)cc1 (centres unmarked) next.
Y

Item: Cc1ccc(Nc2ccnc(Nc3ccc4c(c3)CS(=O)(=O)C4)n2)cc1O.Cl
N

Follow-up entry: COC(=O)c1cccc(NC(=O)NC2CCN(c3ccnc(Nc4cc(OC)c(OC)c(OC)c4)n3)C2)c1 (centres unmarked)
Y

Now give it for Nc1nccc(-c2ccc3c(N)n[nH]c3c2)n1 too.
Y

Next up: OCCn1cc(-c2cnc3nnn(Cc4ccc5ncccc5c4)c3n2)cn1
Y

----------
Tested on: PIK3CD
reported.conditions: concentration: 1 μM,replicates: in singlicate; n = 1
We begin with a simple list: items and their reported %Inh.
Kindly report the value followed by its unit.

1) N#Cc1cccc(C(=O)NC2CCN(c3ccnc(Nc4ccc(F)cc4)n3)C2)c1 (centres unmarked) :: 0%

GET /values?readout=%Inh&item= CN(c1ccccc1CNc1nc(Nc2ccc3c(c2)CC(=O)N3)ncc1C(F)(F)F)S(C)(=O)=O
0%

Entry to check: CS(=O)c1ccc(-c2coc3ccc(-c4n[nH]c(=O)o4)cc23)cc1 (centres unmarked)
35%

Field entry: Cn1cc(-c2cccc3c(N)c(C(N)=O)nnc23)cn1
20%

Please answer likewise for COc1cccc(C2=C(Nc3cccc(Cl)c3)C(=O)NC2=O)c1
0%

----------
Tested on: HUNK
reported.conditions: concentration: 1 μM,replicates: in singlicate; n = 1
recorded.metric: %Inh (%)
Number only, in %; omit the unit.

As a guide, the following entries are already answered.
1. C[C@@H](Oc1cc(-n2cnc3ccc(-c4ccncc4)cc32)sc1C(N)=O)c1ccccc1Cl :: 0
2. CCNCC(Cc1ccccc1)NC(=O)c1cc(Br)c(-c2ccnc3[nH]ccc23)s1.Cl.Cl (stereo not drawn) :: 0
3. Cl.Cl.NC[C@H](CC1CCCCC1)NC(=O)c1ccc(-c2ccnc3[nH]ccc23)s1 :: 0
4. CCN1CCN(CCCC(=O)Nc2n[nH]c3nc(-c4ccc(O)cc4)c(Br)cc23)CC1 :: 0
5. O=C(Nc1cccc(C(F)(F)F)c1)c1cccc(Oc2ccc3nccn3n2)c1 :: 0

Query the reported %Inh for HUNK; item: Cc1cccc2c(-c3ccncc3)c(-c3ccc(F)cc3)nn12.Cl
5

Item: CNC(=O)c1ccccc1Nc1nc(Nc2cccc(CS(C)(=O)=O)c2)ncc1C.O=CO
0

Follow-up item: NC(=O)c1ccc(-c2cc3ncnc(SCC(=O)O)c3s2)cc1
0

Lookup N#Cc1cccc(C(=O)NC2CCN(c3ccnc(Nc4ccc(F)cc4)n3)C2)c1 (stereo not drawn)
7

----------
Reported %Inh values follow for various molecules
Tested on: PIM2
reported.conditions: concentration: 1 μM,replicates: in singlicate; n = 1
Kindly provide the numeric value in % only, without the unit symbol.

The following molecules have reported results that may help.
1) CN1CCN(CCNc2nc3cc(Oc4ccc(NC(=O)Nc5cc(C(F)(F)F)ccc5F)cc4)ccc3[nH]2)CC1.Cl.Cl :: 2
2) COc1cc2ncn(-c3cc(OCC4CCCCC4)c(C(N)=O)s3)c2cc1OC :: 0
3) CSc1nccc(-c2c(-c3ccc(F)cc3)ncn2CCCN2CCOCC2)n1.Cl :: 0
4) COc1cc2c(Nc3ccc(NC(=O)c4ccccc4)cc3)ncnc2cc1OCCCN1CCOCC1 :: 0
5) Cc1ccc(Nc2ccnc(Nc3ccc4c(c3)CS(=O)(=O)C4)n2)cc1O.Cl :: 0
6) CC(=O)Nc1ccc(-c2cc3ncnc(SCC(=O)O)c3s2)cc1 :: 48

What measured %Inh goes with O=C(Nc1cccc(C(F)(F)F)c1)c1cccc(Oc2ccc3nccn3n2)c1 ?
7

Request: Cc1cccc2c(-c3ccncc3)c(-c3ccc(F)cc3)nn12.Cl
0

Quick one: COC(=O)c1cccc(NC(=O)NC2CCN(c3ccnc(NCc4ccc(F)cc4)n3)CC2)c1
0

----------
Test system: CHEK1
reported.conditions: concentration: 1 μM,replicates: in singlicate; n = 1
recorded.metric: %Inh (%)
Response body: numeric value in %, unit text excluded.

1) Cc1nnc(-c2ccc3occ(-c4ccc(S(C)=O)cc4)c3n2)o1 (stereo not drawn) :: 0
2) CC(=O)c1c(-c2ccncc2)[nH]c(-c2ccncc2)c1C :: 83
3) Cl.Nc1n[nH]c2cc(-c3ccccn3)ccc12 :: 18
4) C[C@@H](Oc1cc(-n2cnc3cc(-c4cnn(C)c4)ccc32)sc1C(N)=O)c1ccccc1Cl :: 32
5) Cn1cc(-c2cccc3c(N)c(C(N)=O)nnc23)cn1 :: 0

Lab request: please report %Inh under test system CHEK1 for COC(=O)Nc1nc2cc(Oc3ccc(NC(=O)Nc4cc(C(F)(F)F)ccc4Cl)cc3)ccc2[nH]1.Cl
0

Try this molecule too: OCCn1cc(-c2cnc3nnn(Cc4ccc5ncccc5c4)c3n2)cn1
0

How about O=C(Nc1ccc(Oc2ccc3nc(NC(=O)C4CC4)cn3n2)c(F)c1)c1cccn(-c2ccccc2)c1=O ?
0

Then CCOC(=O)N1CCC(n2cnc(-c3ccc(F)cc3)c2-c2ccnc(N)n2)CC1 ?
0

// provenance: paper PMC5540273
